Task for the reader: assign each of the following compounds its reported melting point.

compound | melting point
CSc1ccc(-n2c(-c3ccc(Cl)cc3)cc(=O)[nH]c2=O)cc1 [Example 3] | 249 to 251 °C

Hey, can you go through the list below and give me melting point for every item?
1. CSc1ccc(-n2c(-c3ccccc3)cc(=O)[nH]c2=O)cc1 [Example 1]
2. CSc1ccc(-n2c(-c3ccc(C)cc3)cc(=O)[nH]c2=O)cc1 [Example 2]
3. CS(=O)(=O)c1ccc(-n2c(-c3ccccc3)cc(=O)[nH]c2=O)cc1 [Example 6]

## Result
239 to 242 °C (dec.)
235 to 238 °C
283 to 287 °C (dec.)

Required: melting point, one value per compound below.
1. CSc1ccc(-c2cc(=O)[nH]c(=O)n2-c2ccc(C)cc2)cc1 [Example 4]
2. CSc1ccc(-c2cc(=O)[nH]c(=O)n2-c2ccc(Br)cc2)cc1 [Example 5]
3. CS(=O)(=O)c1ccc(-n2c(-c3ccc(Cl)cc3)cc(=O)[nH]c2=O)cc1 [Example 8]

## Result
1. 266 to 268 °C
2. 282 to 285 °C
3. 294 to 298 °C

## Task Please list melting point recorded for the compound Cc1ccc(-c2cc(=O)[nH]c(=O)n2-c2ccc(S(C)(=O)=O)cc2)cc1 [Example 7]
## Result 285 to 288 °C

---

Provide the reported inhibition at 10 µM of each item.
# System: TNF-α
# experimentNotes: TNF-α production from LPS-stimulated human monocytes (ELISA)
# Type: cell-based
# setupConditions: Monocyte, Conc. 10 μM
# Protocol: This assay determines the effect of test compounds on the production of TNF-α from human monocytes. Compounds were tested for their ability to downregulate the production of TNF-α in activated monocytes. Test compounds were incubated for three, six and twenty four hours with human monocytes. Lipopolysaccharide was used to stimulate the monocytes. The level of TNF-α was quantitated using Enzyme-Linked Immunosorbent assay performed in a 96 well format.
One number for each entry, in %.

Consider the reported inhibition at 10 µM for these compounds:
testSmiles | testedTarget | measureUnit | numericReadout
CSc1ccc(-n2c(-c3ccc(C)cc3)cc(=O)[nH]c2=O)cc1 | TNF-α | % | 69.3
Cc1ccc(-c2cc(=O)[nH]c(=O)n2-c2ccc(S(C)(=O)=O)cc2)cc1 | TNF-α | % | 57.6

For the 2 compounds below, give their inhibition at 10 µM values.
1. CS(=O)(=O)c1ccc(-n2c(-c3ccccc3)cc(=O)[nH]c2=O)cc1
2. CSc1ccc(-n2c(-c3ccccc3)cc(=O)[nH]c2=O)cc1

## Result
43.2
48.5
